target: HIV-1 JR-CSF Env I309A (HIV-1 JR-CSF) (UniProt P20871); test: cell-based or functional assay
MEASURED ENDPOINT: Fold IC50 increase relative to wild-type (fold)
Report the figure in fold without appending any unit label.

Need Fold IC50 increase relative to wild-type, item PGT-128 (antibody, V domains shown) VH: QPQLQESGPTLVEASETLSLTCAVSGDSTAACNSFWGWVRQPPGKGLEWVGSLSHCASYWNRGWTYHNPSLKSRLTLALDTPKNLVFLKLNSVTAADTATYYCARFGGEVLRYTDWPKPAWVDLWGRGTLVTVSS VL: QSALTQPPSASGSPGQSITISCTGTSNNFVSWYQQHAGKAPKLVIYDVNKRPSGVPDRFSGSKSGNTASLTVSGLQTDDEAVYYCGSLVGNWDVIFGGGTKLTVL
2.8
